target: AMP-activated protein kinase, AMPK (Homo sapiens) (UniProt P54646+O43741+P54619+Q9UGJ0+Q9Y478+Q13131+Q9UGI9); assay: AMP-dependent Kinase enzyme assay. An in vitro enzyme assay that detects ADP turnover that is directly proportional to AMPK activity. This uses naive AMPK that is activated during the assay with MK-8722; type: functional; set-up: scale not given: direction of the effect not stated beside the values; conditions: 30 µM
value.type: Percent Effect (%)
# number only, unit % dropped from output

molecule | Percent Effect [%]
CC(C)C(C(=O)N(C)C)c1cccc(Cl)c1 (stereo not given) | 6.38

Query :: Please give measured Percent Effect of the following entry: "O=C(Nc1cccc(N2CCCC2)c1)N[C@H](CCO)c1ccccc1"
Result :: -57.9

Query :: Please give measured Percent Effect of the following entry: CCC(=O)N1CCOC(c2cc(Nc3nncs3)cc(C)n2)C1 (stereo not given)
Result :: 23

Query :: Please give measured Percent Effect of the following entry: "COc1ncccc1CNCc1cnc(N2CCOCC2)nc1"
Result :: -1.53

Query :: Please give measured Percent Effect of the following entry: CCC(C)(CC(=O)OC)NCc1nc(C)no1 (stereo not given)
Result :: -1.72

Query :: Please give measured Percent Effect of the following entry: "Cc1nccn1[C@@H]1CC[C@@H](N(C)S(=O)(=O)c2ccccc2F)[C@H]1O"
Result :: 5.86

* * *

target: Chromo domain-containing protein 1 (Saccharomyces cerevisiae (strain ATCC 204508 / S288c) (Baker's yeast)) (UniProt P32657); test: ScCHD-1 Enzyme Inhibition Assay; format: functional; set-up: scale not given: in the data most compounds retested in dose-response had high values; conditions: 30 µM
Sequence (P32657 whole entry, the tested form may be a part): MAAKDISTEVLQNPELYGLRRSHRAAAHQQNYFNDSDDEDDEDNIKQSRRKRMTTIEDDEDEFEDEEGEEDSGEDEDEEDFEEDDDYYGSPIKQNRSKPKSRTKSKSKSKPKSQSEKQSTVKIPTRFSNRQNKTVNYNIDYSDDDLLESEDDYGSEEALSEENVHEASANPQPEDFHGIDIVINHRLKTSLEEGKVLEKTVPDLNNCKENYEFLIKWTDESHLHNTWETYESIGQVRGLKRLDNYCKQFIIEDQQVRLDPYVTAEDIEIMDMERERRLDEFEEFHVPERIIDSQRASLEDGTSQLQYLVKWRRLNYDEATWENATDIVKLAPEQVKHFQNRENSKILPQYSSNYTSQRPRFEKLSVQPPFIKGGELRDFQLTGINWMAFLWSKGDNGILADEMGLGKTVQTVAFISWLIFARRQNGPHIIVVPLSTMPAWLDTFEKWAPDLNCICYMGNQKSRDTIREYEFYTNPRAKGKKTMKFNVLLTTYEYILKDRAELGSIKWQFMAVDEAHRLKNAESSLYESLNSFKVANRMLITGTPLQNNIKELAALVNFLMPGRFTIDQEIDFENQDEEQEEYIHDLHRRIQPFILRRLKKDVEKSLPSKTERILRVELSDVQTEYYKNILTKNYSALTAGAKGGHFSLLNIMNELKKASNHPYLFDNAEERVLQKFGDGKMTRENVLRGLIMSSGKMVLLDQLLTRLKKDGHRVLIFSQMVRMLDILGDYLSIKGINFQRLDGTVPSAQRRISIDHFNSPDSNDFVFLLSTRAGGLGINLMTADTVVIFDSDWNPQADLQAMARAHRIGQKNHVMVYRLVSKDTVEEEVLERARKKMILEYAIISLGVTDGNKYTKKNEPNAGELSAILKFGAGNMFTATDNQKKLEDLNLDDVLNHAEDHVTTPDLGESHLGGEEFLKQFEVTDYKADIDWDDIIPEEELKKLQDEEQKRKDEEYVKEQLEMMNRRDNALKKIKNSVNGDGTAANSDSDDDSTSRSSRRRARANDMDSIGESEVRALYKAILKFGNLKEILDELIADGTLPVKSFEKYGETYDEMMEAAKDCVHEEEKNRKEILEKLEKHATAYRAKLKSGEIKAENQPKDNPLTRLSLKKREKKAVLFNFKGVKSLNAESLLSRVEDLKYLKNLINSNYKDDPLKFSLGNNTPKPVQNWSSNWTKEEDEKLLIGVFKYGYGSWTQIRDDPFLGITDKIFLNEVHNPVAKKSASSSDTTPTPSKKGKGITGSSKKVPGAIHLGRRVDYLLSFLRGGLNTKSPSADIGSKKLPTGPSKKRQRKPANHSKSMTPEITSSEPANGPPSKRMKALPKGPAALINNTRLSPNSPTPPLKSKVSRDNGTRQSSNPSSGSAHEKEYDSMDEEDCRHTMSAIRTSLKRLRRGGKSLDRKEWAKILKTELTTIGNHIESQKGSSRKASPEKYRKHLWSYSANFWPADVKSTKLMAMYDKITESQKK
Reported Percent Effect values for a set of compounds
# number only, unit % dropped from output

Query :: Please give measured Percent Effect of the following entry: "COc1ccc(CC(=O)N2CCc3nnc(N(C)C)cc3C2)cc1F"
Result :: -0.877

Query :: Please give measured Percent Effect of the following entry: FC(F)(F)Cn1ccnc1CN1CCCC1c1noc(C2CC2)n1 (configuration not stated)
Result :: -9.44

Query :: Please give measured Percent Effect of the following entry: CC(C(=O)N1CCCC1)N1CCC(c2nccn2Cc2cscn2)CC1 (configuration not stated)
Result :: -3.89

Query :: Please give measured Percent Effect of the following entry: CN(C)S(=O)(=O)N1CCCC(c2cccc(Cc3ccccc3)n2)C1 (configuration not stated)
Result :: -8.36

Query :: Please give measured Percent Effect of the following entry: "CC(C)n1ccnc1CN1CCCN(C(=O)c2cc(Cl)c[nH]2)CC1"
Result :: -3.25

* * *

target: AMP-activated protein kinase, AMPK (Homo sapiens) (UniProt P54646+O43741+P54619+Q9UGJ0+Q9Y478+Q13131+Q9UGI9); experiment: AMP-dependent Kinase enzyme assay. An in vitro enzyme assay that detects ADP turnover that is directly proportional to AMPK activity. This uses naive AMPK that is activated during the assay with MK-8722; assay type: functional; parameters: scale not given: direction of the effect not stated beside the values; settings: 30 µM
Reported Percent Effect values for a set of compounds
# number only, unit % dropped from output

compound | unit.of.measurement | reported.result
CC(O)c1cccc(OCc2ccon2)c1 (configuration not stated) | % | 4.94
COc1ccc(-c2cc(C3CCCCCN3S(C)(=O)=O)on2)cc1 (configuration not stated) | % | 7.05
Cn1cc(NC(=O)Cc2ccccc2Br)cc1C(N)=O | % | 3.12
Cc1nccn1CCCN1CCCC(c2nccn2CC2CCC2)C1 (configuration not stated) | % | 1.25
COc1ccccc1Oc1ncccc1CNC(=O)C1COC(=O)N1 (configuration not stated) | % | -13.1
Cn1cc(CC(=O)N2CCCC(c3cc(C(F)(F)F)[nH]n3)C2)cn1 (configuration not stated) | % | -6.59

Query :: Please give measured Percent Effect of the following entry: "O=C(NCc1nncn1C1CC1)c1cccnc1Oc1ccccc1"
Result :: 1.39

Query :: Please give measured Percent Effect of the following entry: "CN(C)c1nc2sc(C(=O)N3CCNC(=O)CC3)cc2s1"
Result :: 0.0719

Query :: Please give measured Percent Effect of the following entry: "Cc1cc(CNCC2(O)CCOCC2)ccc1Br"
Result :: -7.22

Query :: Please give measured Percent Effect of the following entry: CC(C)c1nc(C2CCCN2CCN2CCCCC2)no1 (configuration not stated)
Result :: -7.59

Query :: Please give measured Percent Effect of the following entry: CC1CN(C)CCN1C(=O)c1cccn1Cc1cccs1 (configuration not stated)
Result :: 3.93

Query :: Please give measured Percent Effect of the following entry: "Cc1cnn(Cc2cccc(OCC(N)=O)c2)c1"
Result :: -0.231
